Cited source for all entries: patent US11661437B2

Test: Pharmacokinetic assay in Balb/c mice (plasma and brain tissue)
Format: in vivo
Conditions: male, Balb/c, mouse, brain, po, 5 mg/kg, Balb/c mice, 5 mg/kg p.o., brain tissue; read-out: Plasma concentration Cmax
reported-endpoint: Cmax (ng/mL)
Return type: number; implicit unit ng/mL.

Reported Cmax, compound C[C@@]1(O)CC[C@@]2(F)[C@H](CC[C@H]3[C@@H]4CC[C@H](C(=O)Cn5cc(C#N)cn5)[C@@]4(C)CC[C@@H]32)C1 [Example 2] : ____ 655

###

Recorded Area under curve AUC0-∞ for the following molecules
Test: Pharmacokinetic assay in Balb/c mice (plasma and brain tissue)
Assay type: in vivo
Settings: male, Balb/c, mouse, in vivo, po, 5 mg/kg
Description: Balb/c mice were used as test animals. The pharmacokinetic behavior in mice (plasma and brain tissue) of the compounds of Example 2, Example 5, Example 7, Example 12, Example 18, Example 23, Example 26, Example 38, Example 41, Example 50, Example 51 and Example 66 orally administrated at a dose of 5 mg/kg was studied. Each group had 24 male Balb/c mice. […] The main parameters of pharmacokinetics were calculated by WinNonlin 6.1.
Use ng·h/mL as the unit, but write only the number.

// known answers, use as guide
Cc1nn(CC(=O)[C@H]2CC[C@H]3[C@@H]4CC[C@@H]5C[C@](C)(O)CC[C@]5(F)[C@H]4CC[C@]23C)cc1C#N | 1230.2
C[C@@]1(O)CC[C@@]2(F)[C@H](CC[C@H]3[C@@H]4CC[C@H](C(=O)Cn5ccc(C(F)(F)F)n5)[C@@]4(C)CC[C@@H]32)C1 | 485.5

Let us examine a further case.
Fill in: Area under curve AUC0-∞ of C[C@@]1(O)CC[C@@]2(F)[C@H](CC[C@H]3[C@@H]4CC[C@H](C(=O)Cn5nc6ccc(F)cc6n5)[C@@]4(C)CC[C@@H]32)C1 is ___ 2186.8

###

Test: Pharmacokinetic assay in Balb/c mice (plasma and brain tissue)
Assay type: in vivo
Conditions: male, Balb/c, mouse, in vivo, po, 5 mg/kg
reported-endpoint: Plasma concentration Cmax (ng/mL)
Field format: number, assumed ng/mL, no unit text.

The examples below pair each entry with its known result.
C[C@@]1(O)CC[C@@]2(F)[C@H](CC[C@H]3[C@@H]4CC[C@H](C(=O)Cn5nc6ccc(F)cc6n5)[C@@]4(C)CC[C@@H]32)C1 | 281.7
C[C@@]1(O)CC[C@@]2(F)[C@H](CC[C@H]3[C@@H]4CC[C@H](C(=O)CNc5ccc(F)cc5)[C@@]4(C)CC[C@@H]32)C1 | 558.0
C[C@@]1(O)CC[C@]2(F)C3CC[C@]4(C)[C@@H](C(=O)Cn5cc(C#N)c(Cl)n5)CC[C@H]4[C@@H]3CC[C@@H]2C1 (some centres unmarked) | 512.3
C[C@@]1(O)CC[C@]2(F)C3CC[C@]4(C)[C@@H](C(=O)CNc5ccc(F)cc5F)CC[C@H]4[C@@H]3CC[C@@H]2C1 (some centres unmarked) | 172.3

Endpoint output: Plasma concentration Cmax of Cc1nnn(CC(=O)[C@H]2CC[C@H]3[C@@H]4CC[C@@H]5C[C@](C)(O)CC[C@]5(F)[C@H]4CC[C@]23C)n1 . Value? 625.3

###

Assay: Pharmacokinetic assay in Balb/c mice (plasma and brain tissue)
Assay type: in vivo
Settings: male, Balb/c, mouse, in vivo, po, 5 mg/kg, Plasma concentration Cmax
reported-endpoint: Cmax (ng/mL)
Report only the number, with the unit ng/mL understood.

C[C@@]1(O)CC[C@@]2(F)[C@H](CC[C@H]3[C@@H]4CC[C@H](C(=O)Cn5cc(C(F)(F)F)cn5)[C@@]4(C)CC[C@@H]32)C1 [Example 7] | 888

Field request: Cmax | item: C[C@@]1(O)CC[C@]2(F)C3CC[C@]4(C)[C@@H](C(=O)Cn5cc(C#N)c(Cl)n5)CC[C@H]4[C@@H]3CC[C@@H]2C1 (stereo partly drawn) [Example 51] 711

Find the recorded Cmax belonging to C[C@@]1(O)CC[C@@]2(F)[C@H](CC[C@H]3[C@@H]4CC[C@H](C(=O)Cn5nc6ccc(F)cc6n5)[C@@]4(C)CC[C@@H]32)C1 [Example 18] and report it. 236
